Test system: K-562 leukemia
Assay: NCI-60 one-dose screen, 48 h
Conditions: 10 µM unless noted
This is part of a sample that, as a whole, favours compounds with a hit. Of some 83,000 tested, about 20% had one in any assay. The source made the active and inactive calls. How the source made its calls: active means growth percent below 10; inactive means the rest.
Can you answer with just one of these options? 1 for active, -1 for inactive

Entry N#Cc1c(-c2ccc(F)cc2)nc(N=Nc2c(O)[nH]c3ccc(Cl)cc23)nc1N1CCOCC1 : call = ?
-1

What did the test return for CCOC(=O)CC[C@H](NC(=O)c1ccc(NC)c2ccccc12)C(=O)OCC ?
-1

I would be grateful if you could indicate the recorded call for Nc1cc(N)nc(SCC(=O)O)n1 .
-1

Hi, do you know how S=c1ssnc1-c1cc2ccccc2o1 came out in this test?
-1

Look up the recorded call for CC1CCN(CCCCCOc2ccc3oc4ccccc4c(=O)c3c2)CC1 in this test.
-1

Which outcome did this test record for the compound NC(=O)C(O)(c1ccccc1)c1ccccc1 ?
-1

Assay outcome for C#Cc1ccccc1NC(=O)c1sc2nc3c(cc2c1N)CCCCCC3 : what was it?
-1

Name the outcome recorded for CC(C)(C#N)c1cc(F)cc(C(=O)Nc2cc(Nc3ncccc3-c3ncnc4nc[nH]c34)ccc2F)c1 in the assay.
1

Returns: the outcome recorded for CN1CCN(C(=O)[C@@]2(C)CC[C@]3(C)CC[C@]4(C)C(=CC[C@@H]5[C@@]6(C)CC[C@H](OC(=O)c7cccnc7)C(C)(C)[C@@H]6CC[C@]54C)[C@@H]3C2)CC1 in this assay.
1

Query: recorded result category for NC(=O)CN1C(=O)c2ccccc2C1=O in this test
-1

Identify the outcome logged in this assay for the compound shown: C(=C\c1cn(-c2ccccc2)nc1-c1ccccc1)/c1nnc(-c2c[nH]c3ccccc23)o1
-1

Can you look up the reported call for CCOC(=O)c1c(C)nc2c(c1N)/C(=C/c1ccc[nH]1)C(=O)N2Cc1ccc(C(F)(F)F)cc1 for me?
-1

// param item: CC1=C(CCCOC(=O)NCCCl)C2=C(C)C3(CC3)[C@@](C)(O)C(=O)C2=C1 ; yields the recorded call
-1

Hey, what did the test say about O=C(/C(=C\c1c(-c2ccccc2)[nH]c2ccccc12)S(=O)(=O)c1ccccc1)c1ccccc1 ?
1

Give the logged outcome of this assay for the following compound: NS(=O)(=O)c1ccc(C2C3=C(CCCC3=O)OC3=C2C(=O)c2ccccc2C3=O)cc1 (centres undefined)
1

Answer briefly: the call reported for O=C(NCc1ccccc1)c1ccc2c(c1)NC(=O)[C@@H]1CCCN21 in this assay.
-1

In this assay, the call recorded for CSc1nc(-c2ccco2)c2c(N)[nH]nc2n1 was what?
-1

Record request — test call for C#C[C@@]1(O)[C@@H](CO)O[C@@H](n2cc(F)c3c(N)ncnc32)[C@@H]1O
1

GET /call?item= Nc1c(C(=O)Nc2cccc3ccccc23)sc2nc3c(cc12)CCCCC3 returns the recorded outcome of this test.
1

Please indicate how the test categorized NS(=O)(=O)c1ccc(-n2nc(-c3ccccc3)ccc2=O)cc1 .
-1

For this compound, state the assay outcome: CCc1ccc(OCc2ccccc2C(=O)Nc2ccc3nc(C)cc(N)c3c2)cc1
1

For NC(N)=NC(N)=Nc1cc2ccccc2c2ccccc12 , which call appears in the assay record?
1

Status in this test for CC(=O)OCC1OC(OC2C(COC(C)=O)OC(OCCC[S-])C(OC(C)=O)C2OC(C)=O)C(OC(C)=O)C(OC(C)=O)C1OC(C)=O.[Au+].c1ccc(CN2[CH-]N(Cc3ccccc3)C(c3ccccc3)=C2c2ccccc2)cc1 (centres undefined) ?
1

Any idea what this test logged for [2H]c1cc2c(c([2H])c1F)/C(=C/c1[nH]c(C)c(C(=O)NCCN(CC)CC)c1C)C(=O)N2 ?
-1

Record request — test call for O=C(CN1N=C(c2ccc(F)cc2)CCC1=O)Nc1nccs1
-1

Please let me know the test result on file for CC1CCN(CCCCCOc2ccc3oc4cc(Cl)ccc4c(=O)c3c2)CC1 .
1

How did this test come out for CCOC(=O)c1sc(/N=C2\NC(=O)/C(=C/c3ccc(N4CCN(C)CC4)cc3)S2)nc1C ?
-1

Please share the test call associated with Cc1cc(O)cc(O)c1N=NC1=NCCS1 .
-1

Record request — test call for O=C1CC(c2ccc(O)c(O)c2)Oc2cc(O)c([C@@H]3O[C@H](CO)[C@@H](O)[C@H](O)[C@H]3O)c(O)c21 (some centres undefined)
-1

State the result this test recorded for COc1ccc(Nc2cc(NC(=O)CNc3cc(OC)c(Cl)c(OC)c3Cl)ncn2)cc1 .
-1

What did this assay record as the result for NS(=O)(=O)c1ccc(-n2ncc(NC(=O)Nc3ccc(S(=O)(=O)Nc4nccs4)cc3)c2-c2ccccc2)cc1 ?
-1

// return assay outcome for COc1ccc(/C=C(/C(=O)N2CCN(Cc3ccccc3)CC2)c2cc(OC)c(OC)c(OC)c2)cc1O
-1

Identify the outcome logged in this assay for the compound shown: COC(=O)c1cc2c3c(cc(O)c2[nH]1)N(C(=O)C1Cc2cc(OC)c(OC)c(OC)c2N1)CC3CCl (centres undefined)
1

In this assay, the call recorded for Cc1c(C(=O)Nc2nc3ccccc3[nH]2)cnn1-c1ccccn1 was what?
-1

Assay result, entry Nc1c(C(=O)Nc2ccccn2)sc2nc3c(cc12)CCCCC3 — outcome?
1

Returns: the outcome recorded for Cc1[nH]c(N=Nc2ccccc2)nc1N=Nc1ccccc1 in this assay.
-1

Recorded test outcome, item O=C(CSC(=S)N1CCCCC1)Nc1ccccc1
-1

Tell me the recorded outcome of this test for COc1c(O)cc2oc3cc(O[C@@H]4OC(C)[C@@H](O)[C@H](O)C4O)c(CC=C(C)C)c(O)c3c(=O)c2c1CC=C(C)C (some centres undefined) .
-1

Lab log entry: Cc1cc(Cl)cc(CN(Cc2ccccc2)Cc2c(O)ccc3ccccc23)c1O — outcome as called in the assay?
-1

The origin of these recorded values is PubChem BioAssay (NCI).
